Reported pEC50 values are given for each entry in this list.
# TESTED_ON: AMPK
# PROTOCOL_DESCRIPTION: AMPK activation, enzyme-linked immunosorbent assay
# Type: biochemical
# CONDITION_NOTES: compounds of Table 3 (Table 8)
pEC50: −log10 of the molar value.

MOLECULE: N#Cc1ccc(CN2CCC(NC(=O)c3ccc4c(c3)CN(Cc3ccc(F)cc3)CC4)CC2)cc1
REPORTED_PROPERTY: pEC50
OBSERVED: > 7.00
//
MOLECULE: CC(C)(C)OC(=O)N1CCC(Oc2ncc(C(=O)NC3CCN(Cc4ccc(C#N)cc4)CC3)s2)CC1
REPORTED_PROPERTY: pEC50
OBSERVED: 5.00 to 6.00
//
MOLECULE: O=C(c1ccc(F)cc1)N1CC2CC1CN2C(=O)c1nc2ccc(OC3CCN(c4ccc(C(F)(F)F)cc4)CC3)cc2o1 (stereo not shown)
REPORTED_PROPERTY: pEC50
OBSERVED: > 7.00

### Prompt Given `N#Cc1ccc(CN2CCC(NC(=O)c3nc4ccc(OC5CCN(c6ccc(C(F)(F)F)cc6)CC5)cc4o3)CC2)cc1` , state its recorded pEC50.
### Response > 7.00

* * *

# TESTED_ON: AMPK
# PROTOCOL_DESCRIPTION: AMPK activation, enzyme-linked immunosorbent assay
# Format: biochemical
# CONDITION_NOTES: compounds of Table 3 (Table 8)
Reported EC50 values are given for each entry in this list.

MOLECULE: N#Cc1ccc(CN2CCC(NC(=O)c3ccc(C(=O)NC4CCN(c5ccccc5)CC4)cc3)CC2)cc1
EC50: 10000 to 100000 nM
//
MOLECULE: O=C(NC1CCN(Cc2ccncc2)CC1)c1nc2ccc(OC3CCN(c4ccc(C(F)(F)F)cc4)CC3)cc2o1
EC50: < 100 nM
//
MOLECULE: N#Cc1ccc(CN2CCC(NC(=O)c3ccc(C(=O)N4CCN(Cc5ccc(Cl)cc5)CC4)cc3)CC2)cc1
EC50: < 100 nM
//
MOLECULE: N#Cc1ccc(CN2CCC(NC(=O)c3ccc(C(=O)N4CCN(c5ccc(C(F)(F)F)cn5)CC4)cc3)CC2)cc1
EC50: < 100 nM
//
MOLECULE: O=C(c1ccncc1)N1CC2CC1CN2C(=O)c1nc2ccc(OC3CCN(c4ccc(C(F)(F)F)cc4)CC3)cc2o1 (centres unmarked)
EC50: 100 to 1000 nM
//
MOLECULE: O=C(NC1CCN(C(=O)c2ccc(F)cc2)CC1)c1nc2ccc(OC3CCN(c4ccc(C(F)(F)F)cc4)CC3)cc2o1
EC50: < 100 nM
//
MOLECULE: N#Cc1ccc(CN2CCC(NC(=O)c3cnc(OC4CCN(c5ccc(C#N)cc5)CC4)s3)CC2)cc1
EC50: < 100 nM

The record that follows has no EC50 shown yet.
### Prompt Given `O=C(NC1CCN(Cc2ccncc2)CC1)c1cnc(OC2CCN(c3ccc(C(F)(F)F)cc3)CC2)cn1` , state its recorded EC50.
### Response < 100 nM

* * *

# TESTED_ON: AMPK
# PROTOCOL_DESCRIPTION: AMPK activation, enzyme-linked immunosorbent assay
# Type: biochemical
# CONDITION_NOTES: compounds of Table 1 (Table 6)
pEC50: −log10 of the molar value.
REPORTED_PROPERTY: pEC50

TEST_SMILES: O=C(NC1CCN(Cc2ccc(F)cc2)CC1)c1ccc(OC2CCN(c3ccc(C(F)(F)F)cc3)CC2)nc1
REPORTED_PROPERTY: pEC50
OBSERVED: > 7.00
//
TEST_SMILES: O=C(N[C@H]1CCN(Cc2ccncc2)C1)c1ccc(OC2CCN(c3ccc(C(F)(F)F)cc3)CC2)cn1
REPORTED_PROPERTY: pEC50
OBSERVED: > 7.00
//
TEST_SMILES: O=C(NC1CCN(Cc2ccccc2)CC1)c1cc2cc(OC3CCN(Cc4ccc(Cl)cc4)CC3)ccc2o1
REPORTED_PROPERTY: pEC50
OBSERVED: 6.30 to 7.00

### Prompt # returns recorded pEC50 (system: AMPK) for `O=C(NC1CCNCC1)c1cc2ccc(OC3CCN(c4ccc(C(F)(F)F)cc4)CC3)cc2o1`
### Response 5.00 to 5.30

### Prompt # returns recorded pEC50 (system: AMPK) for `CC(C)(C)OC(=O)N1CC[C@H](NC(=O)c2ccc(OC3CCN(c4ccc(C(F)(F)F)cc4)CC3)cn2)C1`
### Response 6.30 to 7.00

### Prompt # returns recorded pEC50 (system: AMPK) for `O=C(NC1CCN(Cc2ccncc2)CC1)c1cncc(OC2CCN(c3ccc(C(F)(F)F)cc3)CC2)c1`
### Response > 7.00

### Prompt # returns recorded pEC50 (system: AMPK) for `O=S(=O)(NC1CCN(Cc2ccncc2)CC1)c1ccc(OC2CCN(c3ccc(C(F)(F)F)cc3)CC2)nc1`
### Response 6.30 to 7.00

### Prompt # returns recorded pEC50 (system: AMPK) for `O=C(NC1CCN(Cc2ccncc2)CC1)c1ccc(OC2CCN(c3ccc(C(F)(F)F)cc3)CC2)cn1`
### Response > 7.00

* * *

# TESTED_ON: AMPK
# PROTOCOL_DESCRIPTION: AMPK activation, enzyme-linked immunosorbent assay
# Type: biochemical
# CONDITION_NOTES: compounds of Table 5 (Table 10)
pEC50: −log10 of the molar value.
REPORTED_PROPERTY: pEC50

MOLECULE: CC(C)(C)c1ccc(CN2CCC(Oc3ccc(C(=O)NC4CCN(Cc5ccccc5)CC4)cc3Cl)CC2)cc1 [5-16]
pEC50: > 6.00
--
MOLECULE: COc1cc(C(=O)NC2CCN(Cc3ccccc3)CC2)ccc1OC1CCN(S(C)(=O)=O)CC1 [5-9]
pEC50: 4.30 to 4.70
--
MOLECULE: COc1cc(C(=O)NC2CCN(Cc3ccccc3)CC2)ccc1OC1CCN(c2cccs2)CC1 [5-8]
pEC50: 5.00 to 6.00

The record that follows has no pEC50 shown yet.
### Prompt Given O=C(NC1CCN(Cc2ccccc2)CC1)c1ccc(OC2CCN(C(=O)c3ccc(C(F)(F)F)cc3)CC2)c(Cl)c1 [5-18] , state its recorded pEC50.
### Response > 6.00

* * *

# TESTED_ON: AMPK
# PROTOCOL_DESCRIPTION: AMPK activation, enzyme-linked immunosorbent assay
# Format: biochemical
# CONDITION_NOTES: compounds of Table 5 (Table 10)
REPORTED_PROPERTY: EC50

### Prompt Given `N#Cc1ccc(N2CCC(Oc3ccc(C(=O)NC4CCN(Cc5ccccc5)CC4)c(Cl)c3)CC2)cc1` , state its recorded EC50.
### Response < 1000 nM

### Prompt Given `O=C(NC1CCN(Cc2ccccc2)CC1)c1ccc(OC2CCN(Cc3ccco3)CC2)cc1` , state its recorded EC50.
### Response 1000 to 10000 nM

### Prompt Given `O=C(NC1CCN(Cc2ccccc2)CC1)c1ccc(OC2CCN(c3ccc(C(F)(F)F)cc3)CC2)c(F)c1` , state its recorded EC50.
### Response < 1000 nM

### Prompt Given `Cc1ccc(CN2CCC(Oc3ccc(C(=O)NCCCN4CCOCC4)cc3)CC2)cc1` , state its recorded EC50.
### Response 10000 to 20000 nM

### Prompt Given `CC(C)(C)OC(=O)N1CCC(NC(=O)c2ccc(OC3CCN(Cc4ccc(C#N)cc4)CC3)cc2)CC1` , state its recorded EC50.
### Response < 1000 nM

* * *

# TESTED_ON: AMPK
# PROTOCOL_DESCRIPTION: AMPK activation, enzyme-linked immunosorbent assay
# Type: biochemical
# CONDITION_NOTES: compounds of Table 5 (Table 10)
REPORTED_PROPERTY: EC50

Illustrative cases are given below, each with its answer.
TEST_SMILES: Cn1cncc1CN1CCC(Oc2ccc(C(=O)NC3CCN(Cc4ccccc4)CC3)cc2)CC1
EC50: > 100000 nM

TEST_SMILES: O=C(NC1CCN(Cc2ccccc2)CC1)c1ccc(OC2CCN(Cc3ccc(C(F)(F)F)cc3)CC2)c(F)c1
EC50: < 1000 nM

TEST_SMILES: O=C(NC1CCN(Cc2ccccc2)CC1)c1ccc(OC2CCN(c3cccs3)CC2)c(Cl)c1
EC50: 1000 to 10000 nM

TEST_SMILES: Cc1ccc(CN2CCC(Oc3ccc(C(=O)NC4CCN(Cc5ccc(F)cc5)CC4)cc3Cl)CC2)cc1
EC50: < 1000 nM

TEST_SMILES: O=C(NC1CCN(Cc2ccccc2)CC1)c1ccc(OC2CCN(Cc3ccc(C(F)(F)F)cc3)CC2)c(Cl)c1
EC50: < 1000 nM

TEST_SMILES: O=C(NC1CCN(Cc2ccc(F)cc2)CC1)c1ccc(OC2CCN(c3ccc(C(F)(F)F)cc3)CC2)c(F)c1
EC50: < 1000 nM

TEST_SMILES: COc1ccc(CN2CCC(Oc3ccc(C(=O)NCCCN4CCOCC4)cc3Cl)CC2)cc1
EC50: 10000 to 20000 nM

### Prompt Given `O=C(NC1CCN(Cc2ccncc2)CC1)c1cccc(OC2CCN(c3ccc(C(F)(F)F)cc3)CC2)c1` , state its recorded EC50.
### Response < 1000 nM

Where do the numbers come from? From patent US9511058B2.
